Values were extracted from PubChem BioAssay.

tested on: Concanavalin-A (Canavalia ensiformis)
experiment summary: ConA small-molecule binders, primary screen, artefact control for SMM control protein annotation, biochemical, small-molecule microarray, Alexa647 label, 635 nm (AID 1127);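 also: z combines 667 nm emission intensity with signal-to-noise across three replicate slides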
run conditions: ConA-A647 binding fluorescence, higher = more signal
Everything with composite z-score lower than 1 is 0.0; everything else, including exactly 1, is 1.0.

1) C=CCNC(=O)[C@H]1[C@@H]2C(=O)O[C@@H](c3ccccc3)[C@@H](c3ccccc3)N2[C@@H](c2ccccc2OCCO)[C@]12C(=O)N(C(=O)OCCOC)c1ccc(C#CC3=CCCCC3)cc12 :: 0.0
2) [N-]=[N+]=Nc1ccccc1[C@H]1OC(c2ccc(OCCCO)cc2)=N[C@@]1(CCS(=O)(=O)c1ccccc1)C(=O)N1CCCCC1 :: 1.0
3) CCCC=C(CCC)[C@@H](NP(=O)(c1ccccc1)c1ccccc1)c1ccc(C(F)(F)F)cc1 :: 0.0
4) CCOC(=O)C1=CC[C@@H](c2ccccc2)N(S(=O)(=O)c2ccc(C)cc2)C1 :: 0.0
5) COCCOC(=O)N1C(=O)[C@@]2(c3ccccc31)[C@H](C(=O)N1CCN(c3ncccn3)CC1)[C@H]1C(=O)O[C@H](c3ccccc3)[C@H](c3ccccc3)N1[C@@H]2c1ccc(OCCO)cc1 :: 1.0
6) CC(CO)N1C(=O)[C@@H]2C3C(=O)OCCC/C=C\[C@H]3OC23C=CCN(Cn2nnc4ccccc42)C(=O)[C@@H]13 (some centres not stated) :: 0.0
7) O=C1C[C@]2(c3ccc([N+](=O)[O-])cc3)C(=O)N(Cc3ccccc3)c3cc(CO)ccc3[C@H]2N1CC12CC3CC(CC(C3)C1)C2 :: 0.0
8) C[C@H]1C2=C3C(CC[C@H]4C(OCc5ccc(F)cc5C(F)(F)F)OC[C@](C)([C@@H]34)N(C(=O)OC(C)(C)C)C2)C(CO)C1CO (some centres not stated) :: 0.0
9) COC(=O)C[C@H]1O[C@]2(C(=O)N(C)c3ccccc32)[C@@H](C)[C@@H]1[Si](C)(C)c1ccc(C)cc1 :: 0.0
10) COc1ccccc1CN1C(=O)c2ccccc2[C@](Cc2ccccc2I)(C(=O)NC(C)C)[C@@H]1c1ccc(CO)cc1 :: 1.0
11) C[N+](C)(C)CCCC[C@@H]1NC(=O)[C@@H]2C[C@H](C(=O)O)[C@H](c3ccc(O)cc3)N2C1=O :: 0.0
12) [N-]=[N+]=NCc1ccccc1C[C@@]1(C(=O)N2CCCCC2)N=C(c2ccc(OCCCO)cc2)O[C@@H]1c1ccccc1N=[N+]=[N-] :: 1.0
13) NC(N)=NCc1cn(CCc2c[nH]c3ccccc23)nn1 :: 0.0
14) CC1CC/C=C\[C@H]2OC34C=CCN(CCN5CCOCC5)C(=O)[C@H]3N(CCO)C(=O)[C@@H]4C2C(=O)O1 (some centres not stated) :: 0.0
15) COC(=O)[C@@]1(Cc2ccc(F)cc2)[C@H]2c3cc(C(=O)N4CCCC4)n(CCc4c[nH]c5ccc(OC)cc45)c3C[C@H]2CN1C(=O)c1ccccc1 :: 1.0
16) CCOC(=O)C1=C[C@@H](c2ccccc2)N(S(=O)(=O)c2ccc(C)cc2)[C@H]1c1cccc(Cl)c1 :: 1.0
